B1: PBXIP1 (parent)
chain: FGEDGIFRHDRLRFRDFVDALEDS

Variants of: B1
method_notes: protein stability index of a GFP-peptide fusion (GPS, HEK-293T) (PSI 1-6); higher = more stable;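 further: lentivirally expressed fusions sorted by FACS into six bins by GFP to DsRed ratio, PSI derived from sequencing read proportions per bin multiplied by bin number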
stated_conditions: c terminus: a fixed tail appended
readout_label: protein stability index
Answers are plain numbers.

Below are worked cases with known answers.
>>> df
   alteration            readout_label  numeric_result
0        A20R  protein stability index            3.01
1        A20Q  protein stability index            2.95

Now consider a different variant.
stdin: Return protein stability index (reported value) for this variant: F17K
stdout: 3.09
